Measured IC50 (Histone deacetylase 4 (Homo sapiens))

compound	unit_text	IC50
O=C(NO)c1ccc(CCCN2CCN(C(c3ccccc3)c3ccccc3)CC2)cc1	µM	1.9
CC(c1ccccc1)N1CCN(Cc2ccc(C(=O)NO)cc2)CC1 (stereo not given)	µM	12.3
O=C(NO)c1ccc(CN2CCN(Cc3ccccc3)CC2)cc1	µM	9.2

* * *

Listed next: entries and their corresponding Papp at 2 h.
- protocol_notes: Apparent permeability in human Caco-2 cells incubated for 2 hrs by LC-MS/MS analysis
- Format: ADME, cell-based

compound	Papp at 2 h (×10⁻⁶ cm/s)
O=C(NO)c1ccc(CN2CCN(C(c3ccccc3)c3ccccc3)CC2)cc1	17.1
O=C(NO)c1ccc(CN2CCN(Cc3ccccc3)CC2)cc1	11.6
CC(c1ccccc1)N1CCN(Cc2ccc(C(=O)NO)cc2)CC1 (stereo not drawn)	10.9

* * *

- protocol_notes: Lipophilicity, logD of compound at pH 7.4 measured after 20 mins by UPLC analysis
- Assay type: physicochemical
- details: buffer
Listed next: entries and their corresponding logD at 20 min.

molecule	logD at 20 min
CC(c1ccccc1)N1CCN(Cc2ccc(C(=O)NO)cc2)CC1 (stereo not drawn)	2.1
O=C(NO)c1ccc(CN2CCN(Cc3ccccc3)CC2)cc1	1.9
O=C(NO)c1ccc(CN2CCN(C(c3ccccc3)c3ccccc3)CC2)cc1	3.8

* * *

pIC50: −log10 of the molar value.
Measured pIC50 (Voltage-gated inwardly rectifying potassium channel KCNH2 (Homo sapiens))
value_kind: pIC50

compound	numeric_result
CC(c1ccccc1)N1CCN(Cc2ccc(C(=O)NO)cc2)CC1 (stereo not drawn)	3.97
O=C(NO)c1ccc(CN2CCN(C(c3ccccc3)c3ccccc3)CC2)cc1	6.18
O=C(NO)c1ccc(CN2CCN(Cc3ccccc3)CC2)cc1	4.14

* * *

- system_tested: Histone deacetylase 1 (Homo sapiens, UniProt Q13547)
- Sequence (Q13547 whole entry): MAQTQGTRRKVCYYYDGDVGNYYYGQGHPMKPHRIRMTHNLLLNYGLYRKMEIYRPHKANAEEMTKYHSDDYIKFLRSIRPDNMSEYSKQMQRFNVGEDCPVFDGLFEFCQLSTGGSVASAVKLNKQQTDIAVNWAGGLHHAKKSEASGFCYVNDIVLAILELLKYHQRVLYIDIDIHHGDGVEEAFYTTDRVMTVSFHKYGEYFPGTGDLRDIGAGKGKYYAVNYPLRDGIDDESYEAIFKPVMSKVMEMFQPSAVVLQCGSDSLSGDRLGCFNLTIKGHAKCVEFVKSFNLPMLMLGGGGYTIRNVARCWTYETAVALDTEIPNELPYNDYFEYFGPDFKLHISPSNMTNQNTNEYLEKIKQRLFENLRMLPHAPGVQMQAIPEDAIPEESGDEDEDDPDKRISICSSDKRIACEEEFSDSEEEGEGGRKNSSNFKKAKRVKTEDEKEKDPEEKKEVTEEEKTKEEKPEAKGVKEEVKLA
- protocol_notes: Inhibition of human HDAC1 expressed in human HEK-293T cells using fluorescent peptide RHKKAc as substrate preincubated for 10 mins followed by substrate addition and measured after 1 hr by fluorogenic assay
pIC50: −log10 of the molar value.
Listed next: entries and their corresponding pIC50.
value_kind: pIC50

compound	system_tested	numeric_result
O=C(NO)c1ccc(CN2CCN(C(c3ccccc3)c3ccccc3)CC2)cc1	Histone deacetylase 1 (Homo sapiens, UniProt Q13547)	5.36
O=C(NO)c1ccc(CCCN2CCN(C(c3ccccc3)c3ccccc3)CC2)cc1	Histone deacetylase 1 (Homo sapiens, UniProt Q13547)	5.42
O=C(NO)c1ccc(CN2CCN(Cc3ccccc3)CC2)cc1	Histone deacetylase 1 (Homo sapiens, UniProt Q13547)	4.98
O=C(NO)c1ccc(CCN2CCN(C(c3ccccc3)c3ccccc3)CC2)cc1	Histone deacetylase 1 (Homo sapiens, UniProt Q13547)	5.32
O=C(NO)c1cccc(CN2CCN(C(c3ccccc3)c3ccccc3)CC2)c1	Histone deacetylase 1 (Homo sapiens, UniProt Q13547)	4.33
CC(c1ccccc1)N1CCN(Cc2ccc(C(=O)NO)cc2)CC1 (stereo not drawn)	Histone deacetylase 1 (Homo sapiens, UniProt Q13547)	5.17
O=C(NO)c1ccc(CCCCN2CCN(C(c3ccccc3)c3ccccc3)CC2)cc1	Histone deacetylase 1 (Homo sapiens, UniProt Q13547)	5.26

* * *

- system_tested: Protein deacetylase HDAC6 (Mus musculus)
- Sequence (Q9Z2V5 whole entry): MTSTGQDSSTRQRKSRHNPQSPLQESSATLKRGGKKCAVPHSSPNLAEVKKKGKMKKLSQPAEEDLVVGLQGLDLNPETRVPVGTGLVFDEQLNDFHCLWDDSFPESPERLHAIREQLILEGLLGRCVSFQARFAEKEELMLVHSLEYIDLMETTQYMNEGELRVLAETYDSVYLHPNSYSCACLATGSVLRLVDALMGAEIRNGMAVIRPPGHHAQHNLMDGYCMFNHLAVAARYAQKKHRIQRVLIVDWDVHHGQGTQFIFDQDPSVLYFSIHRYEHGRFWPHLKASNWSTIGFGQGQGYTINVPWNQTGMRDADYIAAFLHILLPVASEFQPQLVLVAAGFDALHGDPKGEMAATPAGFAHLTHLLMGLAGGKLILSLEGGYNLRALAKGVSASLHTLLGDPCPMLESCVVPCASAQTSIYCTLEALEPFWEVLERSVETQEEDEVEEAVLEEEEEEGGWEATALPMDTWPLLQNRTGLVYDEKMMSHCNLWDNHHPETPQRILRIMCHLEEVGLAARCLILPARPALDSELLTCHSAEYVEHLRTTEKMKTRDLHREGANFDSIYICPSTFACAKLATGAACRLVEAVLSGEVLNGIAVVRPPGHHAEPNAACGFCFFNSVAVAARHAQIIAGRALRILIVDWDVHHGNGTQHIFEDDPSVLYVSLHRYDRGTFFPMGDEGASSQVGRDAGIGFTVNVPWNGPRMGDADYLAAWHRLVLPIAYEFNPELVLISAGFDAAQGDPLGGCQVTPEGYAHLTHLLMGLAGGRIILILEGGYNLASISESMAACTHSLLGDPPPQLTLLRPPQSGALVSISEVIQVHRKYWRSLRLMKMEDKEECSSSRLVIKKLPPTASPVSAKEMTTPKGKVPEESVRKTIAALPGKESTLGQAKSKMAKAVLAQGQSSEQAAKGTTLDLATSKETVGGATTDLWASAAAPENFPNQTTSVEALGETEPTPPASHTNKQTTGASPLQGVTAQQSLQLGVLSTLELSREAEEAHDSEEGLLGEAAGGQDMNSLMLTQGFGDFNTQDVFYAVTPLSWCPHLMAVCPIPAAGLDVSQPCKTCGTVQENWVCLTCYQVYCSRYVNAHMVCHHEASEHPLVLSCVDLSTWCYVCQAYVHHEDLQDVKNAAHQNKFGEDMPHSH
- protocol_notes: Inhibition of mouse HDAC6 expressed in human HEK-293T cells using fluorescent peptide Ac-KGLGK(Ac)-MCA as substrate preincubated for 10 mins followed by substrate addition and measured after 1 hr by fluorogenic assay
pIC50: −log10 of the molar value.
Would you mind labelling by pIC50? At or over 6 is 1.0, under is 0.0.

compound	system_tested	assigned_label
O=C(NO)c1ccccc1CN1CCN(C(c2ccccc2)c2ccccc2)CC1	Protein deacetylase HDAC6 (Mus musculus)	0.0
O=C(NO)c1ccc(CCCCN2CCN(C(c3ccccc3)c3ccccc3)CC2)cc1	Protein deacetylase HDAC6 (Mus musculus)	1.0
O=C(NO)c1ccc(CCCN2CCN(C(c3ccccc3)c3ccccc3)CC2)cc1	Protein deacetylase HDAC6 (Mus musculus)	1.0
O=C(NO)c1ccc(CN2CCN(C(c3ccccc3)c3ccccc3)CC2)cc1	Protein deacetylase HDAC6 (Mus musculus)	1.0
O=C(NO)c1ccc(CCN2CCN(C(c3ccccc3)c3ccccc3)CC2)cc1	Protein deacetylase HDAC6 (Mus musculus)	1.0
CC(c1ccccc1)N1CCN(Cc2ccc(C(=O)NO)cc2)CC1 (stereo not drawn)	Protein deacetylase HDAC6 (Mus musculus)	1.0
O=C(NO)c1ccc(CN2CCN(Cc3ccccc3)CC2)cc1	Protein deacetylase HDAC6 (Mus musculus)	1.0
O=C(NO)c1cccc(CN2CCN(C(c3ccccc3)c3ccccc3)CC2)c1	Protein deacetylase HDAC6 (Mus musculus)	0.0

* * *

- protocol_notes: Metabolic stability in mouse liver microsomes assessed as parent compound remaining at 500 uM measured at 60 mins by LC-MS/MS analysis
- Format: ADME, Microsome
- details: read-out: Stability

molecule	remaining at 1 h, 500 µM / %
CC(c1ccccc1)N1CCN(Cc2ccc(C(=O)NO)cc2)CC1 (stereo not drawn)	67
O=C(NO)c1ccc(CN2CCN(Cc3ccccc3)CC2)cc1	80
O=C(NO)c1ccc(CN2CCN(C(c3ccccc3)c3ccccc3)CC2)cc1	1

* * *

- Organism: Homo sapiens
- protocol_notes: Selectivity ratio of IC50 for inhibition of human HDAC4 using fluorescent peptide Boc-Lys(trifluoroacetyl)-AMC as substrate to IC50 for inhibition of mouse HDAC6 expressed in human HEK-293T cells using fluorescent peptide Ac-KGLGK(Ac)-MCA as substrate

molecule	Ratio IC50
O=C(NO)c1ccc(CN2CCN(C(c3ccccc3)c3ccccc3)CC2)cc1	40
O=C(NO)c1ccc(CCCCN2CCN(C(c3ccccc3)c3ccccc3)CC2)cc1	12
O=C(NO)c1ccc(CN2CCN(Cc3ccccc3)CC2)cc1	35
CC(c1ccccc1)N1CCN(Cc2ccc(C(=O)NO)cc2)CC1 (stereo unspecified)	47
O=C(NO)c1ccc(CCN2CCN(C(c3ccccc3)c3ccccc3)CC2)cc1	9
O=C(NO)c1ccc(CCCN2CCN(C(c3ccccc3)c3ccccc3)CC2)cc1	3

Origin of values: ChEMBL document CHEMBL5120930
